biological target: human PDE1b enzyme (Homo sapiens (Human), UniProt Q01064); experiment: PDE1b inhibitory assay (IMAP TR-FRET)
recorded-metric: EC50

Task: Given the molecule COc1ccc(Cn2c(=O)n3ncnc3c3c4c(sc32)N(Cc2cccc(Cl)c2)CCC4)cc1OC , write its reported EC50.
Output: 1 to 10 µM

Task: Given the molecule CC(C)CCc1cc2c(s1)n(Cc1ccccc1)c(=O)n1ncnc21 , write its reported EC50.
Output: 0.1 to 1 µM

Task: Given the molecule Cc1csc2c1c1ncnn1c(=O)n2Cc1ccccc1Cl , write its reported EC50.
Output: 1 to 10 µM

Task: Given the molecule COc1ccc(Cn2c(=O)n3ncnc3c3cc(CN4CC(Oc5ccccc5F)C4)sc32)cc1 , write its reported EC50.
Output: 1 to 10 µM

Task: Given the molecule CCN(Cc1csc2c1c1ncnn1c(=O)n2Cc1ccc(OC)cc1)CC1CCOCC1 , write its reported EC50.
Output: 0.1 to 1 µM

Task: Given the molecule COc1ccc(Cn2c(=O)n3ncnc3c3cc(CN(C)C)sc32)cc1 , write its reported EC50.
Output: 0.1 to 1 µM

Task: Given the molecule COc1ccc(Cn2c(=O)n3ncnc3c3c4c(sc32)COCC4)cc1F , write its reported EC50.
Output: 0.1 to 1 µM

Task: Given the molecule COc1ccc(Cn2c(=O)n3nccc3c3cc(CN4C[C@@H](C)O[C@@H](C)C4)sc32)cc1 , write its reported EC50.
Output: 0.1 to 1 µM

Task: Given the molecule COc1ccc(Cn2c(=O)n3ncnc3c3c(C)c(CN4CCCC4)sc32)cc1 , write its reported EC50.
Output: 0.1 to 1 µM

Task: Given the molecule O=c1n(Cc2ccc(C(F)(F)F)cc2)c2sc3c(c2c2ncnn12)CCOC3 , write its reported EC50.
Output: 1 to 10 µM

Task: Given the molecule COc1ccc(Cn2c(=O)n3ncnc3c3cc(CN4CC(O)C4)sc32)c(F)c1 , write its reported EC50.
Output: 0.1 to 1 µM

Task: Given the molecule COc1ccc(Cn2c(=O)n3ncnc3c3c4c(sc32)NCCC4)cc1 , write its reported EC50.
Output: 0.1 to 1 µM

Task: Given the molecule COc1ccc(Cn2c(=O)n3ncnc3c3cc(CN4CCN(c5ccc(F)cc5)CC4)sc32)cc1 , write its reported EC50.
Output: 0.1 to 1 µM

Task: Given the molecule COc1ccc(Cn2c(=O)n3ncnc3c3c4c(sc32)N(Cc2ccc(Cl)cc2)CCC4)cc1 , write its reported EC50.
Output: 0.1 to 1 µM

Task: Given the molecule COc1ccc(Cn2c(=O)n3ncnc3c3cc(CN(C)CC4(C)COC4)sc32)c(F)c1F , write its reported EC50.
Output: 0.1 to 1 µM

Task: Given the molecule O=c1n(Cc2ccc(-c3ccccc3)cc2)c2sc(Cc3ccccc3)cc2c2ncnn12 , write its reported EC50.
Output: 1 to 10 µM

Task: Given the molecule COc1ccc(Cn2c(=O)n3ncnc3c3ccsc32)cc1 , write its reported EC50.
Output: 0.1 to 1 µM

Task: Given the molecule O=c1n(Cc2ccc(Cl)cc2)c2sc3c(c2c2ncnn12)CCOC3 , write its reported EC50.
Output: 0.1 to 1 µM

All values here come from patent US10092575B2.
